Reported IC90 values follow for various compounds
# Test system: Becap-37 (human breast cancer) cells
# METHOD: MTT cell growth inhibition, solid tumor cells
# Type: cell-based
# ASSAY CONTEXT: Homo sapiens; Becap-37, 72 h, MTT; read-out: IC90
Field format: number, assumed µg/mL, no unit text.

INSERT INTO assay_data (compound, value_reported) VALUES
  ('COc1ccc2cc1Oc1ccc(cc1)C[C@H]1c3cc(c(OC)cc3CCN1C)Oc1c(OC(=O)c3ccc(N(C)C)cc3)c(OC)cc3c1[C@H](C2)N(C)CC3', 1.95),
  ('COc1ccc2cc1Oc1ccc(cc1)C[C@H]1c3cc(c(OC)cc3CCN1C)Oc1c(OCC(O)CN3CCCCC3)c(OC)cc3c1[C@H](C2)N(C)CC3 (stereo partly drawn)', 2.09);

### Prompt Report IC90 for `COc1ccc2cc1Oc1ccc(cc1)C[C@H]1c3cc(c(OC)cc3CCN1C)Oc1c(OCc3ccc(C(F)(F)F)cc3)c(OC)cc3c1[C@H](C2)N(C)CC3` please.
### Response 5.3

* * *

# Test system: RKO (human colon adenocarcinoma) cells
# METHOD: MTT cell growth inhibition, solid tumor cells
# Type: cell-based
# ASSAY CONTEXT: Homo sapiens; RKO, 72 h, MTT; read-out: IC90
EXPERIMENTAL ENDPOINT: IC90 (µg/mL)
Only the number, expressed in µg/mL, is required.

INSERT INTO measurements (molecule, experimental_endpoint, quantity_unit, value_reported) VALUES
  ('C=C(C)COc1c(OC)cc2c3c1Oc1cc4c(cc1OC)CCN(C)[C@H]4Cc1ccc(cc1)Oc1cc(ccc1OC)C[C@@H]3N(C)CC2', 'IC90', 'µg/mL', 2.76),
  ('C=CCN(C)CC(O)COc1c(OC)cc2c3c1Oc1cc4c(cc1OC)CCN(C)[C@H]4Cc1ccc(cc1)Oc1cc(ccc1OC)C[C@@H]3N(C)CC2 (stereo partly drawn)', 'IC90', 'µg/mL', 1.27),
  ('COc1ccc2cc1Oc1ccc(cc1)C[C@H]1c3cc(c(OC)cc3CCN1C)Oc1c(OC(=O)c3c(F)cccc3Cl)c(OC)cc3c1[C@H](C2)N(C)CC3', 'IC90', 'µg/mL', 2.23),
  ('COc1ccc2cc1Oc1ccc(cc1)C[C@H]1c3cc(c(OC)cc3CCN1C)Oc1c(OC(=O)C3CC3)c(OC)cc3c1[C@H](C2)N(C)CC3', 'IC90', 'µg/mL', 3.45),
  ('COc1ccc2cc1Oc1ccc(cc1)C[C@H]1c3cc(c(OC)cc3CCN1C)Oc1c(OCC(O)CNCC3CC3)c(OC)cc3c1[C@H](C2)N(C)CC3 (stereo partly drawn)', 'IC90', 'µg/mL', 0.92);

### Prompt Requested read-out: IC90. Entry: COc1ccc2cc1Oc1ccc(cc1)C[C@H]1c3cc(c(OC)cc3CCN1C)Oc1c(OCC(O)CN3CCCCC3)c(OC)cc3c1[C@H](C2)N(C)CC3 (stereo partly drawn)
### Response 0.79

### Prompt Now this one: COc1ccc2cc1Oc1ccc(cc1)C[C@H]1c3cc(c(OC)cc3CCN1C)Oc1c(OCC(O)CN3CCSCC3)c(OC)cc3c1[C@H](C2)N(C)CC3 (stereo partly drawn)
### Response 2.27

### Prompt Would you mind doing COc1ccc2cc1Oc1ccc(cc1)C[C@H]1c3cc(c(OC)cc3CCN1C)Oc1c(OCC(O)CN3CCCC(C)C3)c(OC)cc3c1[C@H](C2)N(C)CC3 (stereo partly drawn) as well?
### Response 0.95

### Prompt Try this molecule next: `COc1ccc2cc1Oc1ccc(cc1)C[C@H]1c3cc(c(OC)cc3CCN1C)Oc1c(OS(=O)(=O)c3ccc(C)cc3)c(OC)cc3c1[C@H](C2)N(C)CC3`
### Response 2.33

### Prompt Do the same for `COc1ccc2cc1Oc1ccc(cc1)C[C@H]1c3cc(c(OC)cc3CCN1C)Oc1c(OC(=O)c3ccc(N(C)C)cc3)c(OC)cc3c1[C@H](C2)N(C)CC3` please
### Response 1.51

### Prompt Queued: `COc1ccc2cc1Oc1ccc(cc1)C[C@H]1c3cc(c(OC)cc3CCN1C)Oc1c(OCc3ccc(C(F)(F)F)cc3)c(OC)cc3c1[C@H](C2)N(C)CC3`
### Response 5.79

### Prompt Now consider `COc1ccc2cc1Oc1ccc(cc1)C[C@H]1c3cc(c(OC)cc3CCN1C)Oc1c(OCc3cccc(F)c3F)c(OC)cc3c1[C@H](C2)N(C)CC3` .
### Response 2.95

* * *

# System: H9 (acute lymphoblastic leukemia) cells
# METHOD: MTT cell growth inhibition, leukemia cells
# Format: cell-based, human
# ASSAY CONTEXT: Homo sapiens; H9, 72 h, MTT; read-out: IC50
Consider the following molecules and their measured IC50 readings.
Record the result as number plus unit.

Take a look at these entries with their results.
INSERT INTO measurements (molecule, experimental_endpoint, value_reported) VALUES
  ('COc1ccc2cc1Oc1ccc(cc1)C[C@H]1c3cc(c(OC)cc3CCN1C)Oc1c(OCC(O)CN3CCCCC3)c(OC)cc3c1[C@H](C2)N(C)CC3 (stereo partly drawn) [BS-FC-403]', 'IC50', '0.88 µg/mL'),
  ('COc1ccc2cc1Oc1ccc(cc1)C[C@H]1c3cc(c(OC)cc3CCN1C)Oc1c(OC(=O)c3c(F)cccc3Cl)c(OC)cc3c1[C@H](C2)N(C)CC3 [BS-FC-315]', 'IC50', '2 µg/mL'),
  ('COc1ccc2cc1Oc1ccc(cc1)C[C@H]1c3cc(c(OC)cc3CCN1C)Oc1c(OCC(O)CN3CCN(C#N)CC3)c(OC)cc3c1[C@H](C2)N(C)CC3 (stereo partly drawn) [BS-FC-421]', 'IC50', '1 µg/mL'),
  ('C=CCOc1c(OC)cc2c3c1Oc1cc4c(cc1OC)CCN(C)[C@H]4Cc1ccc(cc1)Oc1cc(ccc1OC)C[C@@H]3N(C)CC2 [BS-FC-213]', 'IC50', '2.2 µg/mL'),
  ('COc1ccc2cc1Oc1ccc(cc1)C[C@H]1c3cc(c(OC)cc3CCN1C)Oc1c(OC3CCCC3)c(OC)cc3c1[C@H](C2)N(C)CC3 [BS-FC-220]', 'IC50', '3.23 µg/mL');

### Prompt Record lookup: for H9 (acute lymphoblastic leukemia) cells, what IC50 belongs to COc1ccc2cc1Oc1ccc(cc1)C[C@H]1c3cc(c(OC)cc3CCN1C)Oc1c(OC(=O)C3CC3)c(OC)cc3c1[C@H](C2)N(C)CC3 [BS-FC-304] ?
### Response 3.6 µg/mL

* * *

# System: MGC-803 (human gastric cancer) cells
# METHOD: MTT cell growth inhibition, solid tumor cells
# Type: cell-based
# ASSAY CONTEXT: MGC-803, 72 h, MTT, read-out: IC90
# Procedure: […] 6000 well-growing human solid tumor cells were obtained and inoculated into wells of a 96-well cell culture plate. […] Then the viable cell concentration was determined by the MTT method.
Quick reference for IC90 among some compounds

# annotated cases, reported IC90 shown
INSERT INTO assay_data (compound, value_reported) VALUES
  ('COc1ccc2cc1Oc1ccc(cc1)C[C@H]1c3cc(c(OC)cc3CCN1C)Oc1c(OCC(O)CNCC3CC3)c(OC)cc3c1[C@H](C2)N(C)CC3 (stereo partly drawn)', '3.59 µg/mL'),
  ('COc1ccc2cc1Oc1ccc(cc1)C[C@H]1c3cc(c(OC)cc3CCN1C)Oc1c(OC(=O)C3CC3)c(OC)cc3c1[C@H](C2)N(C)CC3', '10.2 µg/mL'),
  ('COc1ccc2cc1Oc1ccc(cc1)C[C@H]1c3cc(c(OC)cc3CCN1C)Oc1c(OCC(O)CN3CCCCC3)c(OC)cc3c1[C@H](C2)N(C)CC3 (stereo partly drawn)', '4.14 µg/mL'),
  ('COc1ccc2cc1Oc1ccc(cc1)C[C@H]1c3cc(c(OC)cc3CCN1C)Oc1c(OCC(O)CN3CCN(C#N)CC3)c(OC)cc3c1[C@H](C2)N(C)CC3 (stereo partly drawn)', '4.44 µg/mL');

### Prompt Bench note: what IC90 did `C=CCOc1c(OC)cc2c3c1Oc1cc4c(cc1OC)CCN(C)[C@H]4Cc1ccc(cc1)Oc1cc(ccc1OC)C[C@@H]3N(C)CC2` show?
### Response 6.02 µg/mL

### Prompt Another compound to look at: C=CCN(C)CC(O)COc1c(OC)cc2c3c1Oc1cc4c(cc1OC)CCN(C)[C@H]4Cc1ccc(cc1)Oc1cc(ccc1OC)C[C@@H]3N(C)CC2 (stereo partly drawn)
### Response 16 µg/mL

### Prompt And then `COc1ccc2cc1Oc1ccc(cc1)C[C@H]1c3cc(c(OC)cc3CCN1C)Oc1c(OC(=O)c3ccc(N(C)C)cc3)c(OC)cc3c1[C@H](C2)N(C)CC3` , what is it?
### Response 1.99 µg/mL

### Prompt Try this compound next: `COc1ccc2cc1Oc1ccc(cc1)C[C@H]1c3cc(c(OC)cc3CCN1C)Oc1c(OCC3CC3)c(OC)cc3c1[C@H](C2)N(C)CC3`
### Response 5.98 µg/mL

### Prompt Also, `COc1ccc2cc1Oc1ccc(cc1)C[C@H]1c3cc(c(OC)cc3CCN1C)Oc1c(OS(=O)(=O)c3ccc(C)cc3)c(OC)cc3c1[C@H](C2)N(C)CC3` please.
### Response 4.95 µg/mL

### Prompt Same again, this time with `COc1cc(OC)cc(C(=O)Oc2c(OC)cc3c4c2Oc2cc5c(cc2OC)CCN(C)[C@H]5Cc2ccc(cc2)Oc2cc(ccc2OC)C[C@@H]4N(C)CC3)c1`
### Response 4.79 µg/mL

### Prompt Consider next the compound `COc1ccc2cc1Oc1ccc(cc1)C[C@H]1c3cc(c(OC)cc3CCN1C)Oc1c(OC(=O)c3c(F)cccc3Cl)c(OC)cc3c1[C@H](C2)N(C)CC3` in the same way.
### Response 3.02 µg/mL
